Kindly supply the reported protein stability index values for the records listed here.
B1: CASP6 (parent)
chain: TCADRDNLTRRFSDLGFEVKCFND

- Variants of: B1
- test details: protein stability index of a GFP-peptide fusion (GPS, HEK-293T) (PSI 1-6); higher = more stable;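 note: lentivirally expressed fusions sorted by FACS into six bins by GFP to DsRed ratio, PSI derived from sequencing read proportions per bin multiplied by bin number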
- assay context: c terminus: a fixed tail appended
Please reply with the value in numeric form only.

GET /value?item= A3Q &field=protein stability index returns 4.01

Item: S13G | protein stability index: 3

Given item F12V , the value recorded as its protein stability index is 4.21

Per the records, this variant ( V19H ) has protein stability index equal to 3.36

Sure, the documented protein stability index for N23L is 3.8

protein stability index reading for V19W : 2.76

Briefly, protein stability index measured for N23M : 2.98

// recorded protein stability index for G16K : 2.68

The reported value for L8A in terms of protein stability index is 3.38

Record K20M , field protein stability index: 2.57

Data point: C2H ; protein stability index = 3.71

Given item T9P , the value recorded as its protein stability index is 3.62

Measured protein stability index of F22Y : 3.98

For this variant ( D14M ), measured protein stability index is 1.97

protein stability index recorded for this variant, R10N , is 3.56

# protein stability index of D6Y = 2.44

So for F22T , the logged protein stability index turned out to be 4.73

According to the records, this variant A3K displays protein stability index of 3.7
